Tested on: HOP-92
Assay: NCI in vitro cancer screen, Non-Small Cell Lung Cancer
Format: cell-based, human
Settings: HOP-92
Assign labels as follows, please: y for TGI below 10 µM; n for TGI equal to or exceeding 10 µM.

| Smi | Label |
| --- | --- |
| COc1cc(/C=C/c2cc(O)c(CC=C(C)C)c(O)c2)ccc1O | n |
| CC(C)=CCOc1cc(O)cc(/C=C/c2ccc(O)c(O)c2)c1 | n |
| COc1cc(O)cc(/C=C/c2ccc(O)c(O)c2)c1CC=C(C)C | n |
| COc1cc(/C=C/c2cc(O)cc(OCC=C(C)C)c2)ccc1O | n |
| CC(C)=CCc1c(O)cc(/C=C/c2ccc(O)c(O)c2)c(CC=C(C)C)c1O | y |
| CC(C)=CCc1c(O)cc(/C=C/c2ccc(O)cc2)c(CC=C(C)C)c1O | y |
| COc1cc(/C=C/c2cc(O)cc(OC)c2CC=C(C)C)ccc1O | n |
